study_target: T1, Recombinant human Fc-tagged extracellular domain of LILRB1 (human, UniProt Q8NHL6 24-461)
T1 construct: extracellular domain; Bought from R&D Systems; also called LILRB1-Fc; not shown: Fc tag
T1 sequence (Q8NHL6 24-461): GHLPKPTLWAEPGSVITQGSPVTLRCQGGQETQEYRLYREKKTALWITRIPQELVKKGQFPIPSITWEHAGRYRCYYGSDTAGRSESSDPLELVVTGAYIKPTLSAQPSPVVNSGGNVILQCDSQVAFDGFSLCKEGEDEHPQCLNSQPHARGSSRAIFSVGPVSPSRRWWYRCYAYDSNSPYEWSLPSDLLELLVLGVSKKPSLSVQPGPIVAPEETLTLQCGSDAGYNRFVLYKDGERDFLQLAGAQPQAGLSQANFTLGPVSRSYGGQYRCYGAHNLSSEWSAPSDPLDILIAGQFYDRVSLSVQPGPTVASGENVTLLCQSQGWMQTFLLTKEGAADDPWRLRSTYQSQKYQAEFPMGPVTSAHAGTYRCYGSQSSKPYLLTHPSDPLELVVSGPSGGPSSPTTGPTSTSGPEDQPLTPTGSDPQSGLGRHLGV
assay_remarks: SPR, Biacore X100; LILRB1-Fc amine-coupled to CM5 chip, antibody injected at 3.7-300 nM
quantity_kind: -log(Kd)
Answer with a bare number; do not write a unit.

Worked cases, answers included:
binder: 4A11 (antibody, V domains shown, Entries are printed with leader peptide and part of the mouse constant region; also called LILRB1 antibody 4A11) VH: QVQLKQSGAELVRPGTSVKLSCKASGYTFTDYYINWVKQRPGQGLEWIARIYPGSGNTFYNEKFQDKATLTAEKSSSTAYMQLSSLTSEDSAVYFCANTPSYGSSHWYFDVWGTGTTVTVSS VL: DIVMTQSHKFMSTSVGDRVSITCKASQDVNTAVAWYQQKPGQSPKLLIYWASTRHTGVPDRFTGSGSGTDFTLTISNVQSEDLADYFCQQYSTYPRTFGGGTKLEIKR
recorded_result: 7.76

binder: 5H12 (antibody, V domains shown, Entries are printed with leader peptide and part of the mouse constant region; also called LILRB1 antibody 5H12) VH: QVQLKESGPGLVAPSQSLSITCTVSGFSLSSYGVNWVRQPPGKGLEWLGVIWGDGSTNYHSALISRLSISKDNSKSQVFLKLNSLQTDDTATYYCAKPNWDYYAMEYWGQGTSVTVSS VL: GIVMTQSQKFMSSTVGDRVSITCKASQNVGAAVIWYQQKPGQSPKLLIYSASNRYTGVLDRFTGSGSGTDFTLTISNMQSEDLADYFCQQYSSYPWTFGGGTKLEIKR
recorded_result: 8.26

Query: Find the recorded -log(Kd) belonging to 5B3 (antibody, V domains shown, Entries are printed with leader peptide and part of the mouse constant region; also called LILRB1 antibody 5B3) VH: QVQLKESGPGLVAPSQSLSITCTVSGFSLTSYGIDWVRQPPGKGLEWLGVIWGGGNTNYNSALMSRLTISKDNSKSQVFLKMNSLQTDDTAMYYCAKANWDSYAMDYWGQGTSVTVSS VL: DIQMNQSPSSLSASLGDTITITCHASQNINFWLNWYQQKPGNIPKLLIYKASNLHTGVPSRFSGSGSGTGFTLTISSLQPEDIATYYCQQGQSYPLTFGGGTKVEIKR and report it.
Reply: 8.76

Query: Find the recorded -log(Kd) belonging to 6A11 (antibody, V domains shown, Entries are printed with leader peptide and part of the mouse constant region; also called LILRB1 antibody 6A11) VH: QIQLQQSGPELVKPGASVKISCKASGYTFTDYYINWVKQRPGQGLEWIGWIYPGSGNTKYNEKFKGKATLTVDTSSSTAYMQLSSLTSEDSAVYFCARFEDKHSSNYWFAYWGQGTLVTVSA VL: DILLTQSPAILSVSPGERVSFSCRASQYIGTSIHWYQQRTNGSPRLLIKYASESISGIPSRFSGSGSGTDFTLSINSVESEDIADYYCQQSNSWPFTFGSGTKLEIKR and report it.
Reply: 12.4

Query: Find the recorded -log(Kd) belonging to 5E6 (antibody, V domains shown, Entries are printed with leader peptide and part of the mouse constant region; also called LILRB1 antibody 5E6) VH: QVQLQQSAAELVKPGASVKISCKVSGQSFTDHTIHWMKQRPEQGLEWIGYIFPRDGFTEYNERFKGKATLTADKSSSTAYMHLNSLTSEDSAVYFCAGNWDALDYWGPGTSVTVSS VL: DIVLTQSPATLSVTPGDSVSLSCRASQSISKYLHWYQQKSHESPRLLIKYVSQSISGIPSRFSGSGSGTDFTLSINSVETEDFGIYFCQQSNSWPLTFGAGTKLELKR and report it.
Reply: 8.2
